Quick reference for self-aminoacylation among some sequences
system: biotinyl-Val-oxazolone; test: self-aminoacylation, catalytic enhancement (BVO) (fold over background); higher = more active; k-Seq, kA / k0A0; sequences stand for … in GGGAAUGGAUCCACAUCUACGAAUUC…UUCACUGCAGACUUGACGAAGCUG
Variants at the floor of the assay were thinned out.

| POLYMER SEQUENCE | TARGET UNDER TEST | self-aminoacylation |
| --- | --- | --- |
| AAGUUACCUAAUAGUCGCAAG [Fam3.1 aminoacylation ribozyme variant] | biotinyl-Val-oxazolone | 1.4 |
| CCACACUACAAGCAAUCGCUC [Fam1B.1 aminoacylation ribozyme variant] | biotinyl-Val-oxazolone | 1.29 |
| CCACACUUCAAGCAAACGGGC [Fam1B.1 aminoacylation ribozyme variant] | biotinyl-Val-oxazolone | 2.03 |
| AUAACCCUGUUCAUCGAGUGA [Fam2.1 aminoacylation ribozyme variant] | biotinyl-Val-oxazolone | 2.18 |
| AUUCCCCUAGGUCAUGGGGUG [Fam2.2 aminoacylation ribozyme variant] | biotinyl-Val-oxazolone | 11.1 |
| AUUAACCUAGGUCAGCGGGUG [Fam2.2 aminoacylation ribozyme variant] | biotinyl-Val-oxazolone | 2.12 |
| CCACGCUUCAAGCAAUCGGAC [Fam1B.1 aminoacylation ribozyme variant] | biotinyl-Val-oxazolone | 0.666 |
| CUACUUCAAACAUUCGGUCUG [Fam1A.1 aminoacylation ribozyme variant] | biotinyl-Val-oxazolone | 1.01 |
| CUUCUUCAAACAAUCGGUCUU [Fam1A.1 aminoacylation ribozyme variant] | biotinyl-Val-oxazolone | 0.925 |
| CGACACUCCAAGCAAUCGGUC [Fam1B.1 aminoacylation ribozyme variant] | biotinyl-Val-oxazolone | 1.11 |
| AAGUUUGCUAAGAUUCGCAAG [Fam3.1 aminoacylation ribozyme variant] | biotinyl-Val-oxazolone | 0.867 |
| AUGUUUGCUAAUAGUCGCACG [Fam3.1 aminoacylation ribozyme variant] | biotinyl-Val-oxazolone | 0.981 |
| AAGUUUGCUAAUAGUCACUAG [Fam3.1 aminoacylation ribozyme variant] | biotinyl-Val-oxazolone | 0.939 |
| AUUCAGCUAGGUCGUCGGGUG [Fam2.2 aminoacylation ribozyme variant] | biotinyl-Val-oxazolone | 2.62 |
| CUACUCCAAACUAUCGGUCUG [Fam1A.1 aminoacylation ribozyme variant] | biotinyl-Val-oxazolone | 1.07 |
| AUUACGCUGGUCGUCGAGUGA [Fam2.1 aminoacylation ribozyme variant] | biotinyl-Val-oxazolone | 1.36 |
| AUUGCCCUGGUCACCGAGUGA [Fam2.1 aminoacylation ribozyme variant] | biotinyl-Val-oxazolone | 4.68 |
| CCACCCUUCAAGCAAUCGGGC [Fam1B.1 aminoacylation ribozyme variant] | biotinyl-Val-oxazolone | 3.02 |

====

system: biotinyl-Leu-oxazolone; assay: self-aminoacylation, catalytic enhancement (BLO) (fold over background); higher = more active; k-Seq, kA / k0A0; sequences stand for … in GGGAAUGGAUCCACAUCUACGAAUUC…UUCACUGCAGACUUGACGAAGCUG
This sample holds only a part of the variants without activity.
OBSERVABLE: self-aminoacylation

| POLYMER SEQUENCE | OBSERVABLE | TEST VALUE |
| --- | --- | --- |
| CCACACUACAAGCAUUCGGUC [Fam1B.1 aminoacylation ribozyme variant] | self-aminoacylation | 1.73 |
| CUACUUCAAAAAAUCGAUCUG [Fam1A.1 aminoacylation ribozyme variant] | self-aminoacylation | 0.6 |
| ACUACCGUGGUCAUCGAGUGA [Fam2.1 aminoacylation ribozyme variant] | self-aminoacylation | 5.21 |
| AUUACCCUGGCAAUCGAGUGA [Fam2.1 aminoacylation ribozyme variant] | self-aminoacylation | 5.38 |
| AUAACCCUCGUCAUCGAGUGA [Fam2.1 aminoacylation ribozyme variant] | self-aminoacylation | 3.59 |
| AUUACCCUGAUCAUUGAGUGA [Fam2.1 aminoacylation ribozyme variant] | self-aminoacylation | 12.2 |
| AUUACCCUGGGCAUCCAGUGA [Fam2.1 aminoacylation ribozyme variant] | self-aminoacylation | 8.87 |
| CUACUUCCAACACUCGGUCUG [Fam1A.1 aminoacylation ribozyme variant] | self-aminoacylation | 1.01 |
| AUCACCCUGUUCAUCGAGUGA [Fam2.1 aminoacylation ribozyme variant] | self-aminoacylation | 5.15 |
